Catalogue of z-score values
experiment notes: osmotic lysis modulators in infected erythrocytes, primary screen, PSAC antagonist project, cell-based, P. falciparum Indochina, OD700, 3 h (AID 1156)
test context: higher = more signal, called active from +8 up or from −8 down
Write no unit; give the number alone.

Past entries and their recorded results:
CC(C)CON=C1C[C@@H](O)[C@@H](O)[C@@H]2[C@@H]3C(=O)N(C4CCCCC4)C(=O)[C@@H]3CC[C@@H]12	-0.383
CCOC(=O)[C@H](Cc1ccccc1)NC(=O)CCC1CC(OC(=O)NCc2cccc3ccccc23)CC2(CCCC(COC(=O)NCc3ccccc3)O2)O1 (some centres undefined)	-0.562
C[C@@H](c1ccccc1)N1C(=O)[C@H]2[C@H]3[C@H](O)[C@H](O)CC(=NO[C@@H]4O[C@H](CO)[C@@H](O)[C@H](O)[C@H]4O)[C@@H]3CC[C@H]2C1=O	-0.698

Please examine the following record next.
# lookup: z-score of CO[C@H]1COC(=O)CC=C[C@H](C)[C@@H](OC)COC(=O)[C@@H](C)COC(=O)CC=C[C@@H]1C
0.033
